- TESTED TARGET: rat TAAR1 (Rattus norvegicus (Rat))
- Sequence (Q923Y9 whole entry): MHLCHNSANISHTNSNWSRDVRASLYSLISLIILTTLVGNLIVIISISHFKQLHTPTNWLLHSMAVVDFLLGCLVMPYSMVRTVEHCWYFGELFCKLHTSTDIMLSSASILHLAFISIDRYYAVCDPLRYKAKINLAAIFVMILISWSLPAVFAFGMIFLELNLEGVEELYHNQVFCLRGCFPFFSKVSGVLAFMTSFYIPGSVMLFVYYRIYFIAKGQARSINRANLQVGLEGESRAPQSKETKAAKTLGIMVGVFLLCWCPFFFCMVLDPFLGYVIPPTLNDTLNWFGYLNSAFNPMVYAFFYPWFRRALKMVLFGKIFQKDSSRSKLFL
pKd: −log10 of the molar value.
PROPERTY: pKd

Q) Which measured pKd value corresponds to CCN(C[C@H]1COC(N)=N1)c1ccccc1 [reference compound] ?
A) ~8.64

---

- TESTED TARGET: UniProtKB Q923Y8
- Sequence (Q923Y8 whole entry): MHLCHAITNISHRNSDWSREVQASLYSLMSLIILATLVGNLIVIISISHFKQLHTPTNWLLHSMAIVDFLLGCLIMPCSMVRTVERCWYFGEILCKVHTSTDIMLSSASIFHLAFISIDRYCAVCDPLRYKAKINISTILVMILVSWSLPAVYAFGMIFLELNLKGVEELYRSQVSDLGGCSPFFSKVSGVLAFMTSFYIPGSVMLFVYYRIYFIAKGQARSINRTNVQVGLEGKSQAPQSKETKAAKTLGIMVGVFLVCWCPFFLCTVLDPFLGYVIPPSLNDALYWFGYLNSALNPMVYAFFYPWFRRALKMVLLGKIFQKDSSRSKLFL
- EXPERIMENT NOTES: Radioligand binding assay on mouse TAAR1
- EXPERIMENTAL PARAMETERS: mouse TAAR1 membranes, saturation curve; read-out: dissociation constant (Kd) of the radioligand
- Protocol: Construction of TAAR Expression Plasmids and Stably Transfected Cell Lines For the construction of expression plasmids the coding sequences of human, rat and mouse TAAR 1 were amplified from genomic DNA essentially as described by Lindemann et al.. The Expand High Fidelity PCR System (Roche Diagnostics) was used with 1.5 mM Mg^2+ and purified PCR products were cloned into pCR2.1-TOPO cloning vector (Invitrogen) following the instructions of the manufacturer. […]
pKd: −log10 of the molar value.
PROPERTY: pKd

Q) Which measured pKd value corresponds to CCN(C[C@H]1COC(N)=N1)c1ccccc1 [reference compound] ?
A) ~9.15
